- Tested on: CP260
- assaySummary: qHTS profiling for inhibitors of Plasmodium falciparum proliferation (AID 504749); further: nearly all actives have a fitted effect of over 60% in size
- conditionSet: P. falciparum in erythrocytes, SYBR Green DNA, 72 h; series mostly up to 28.7 µM
Inconclusive results are not listed. Calls of active or inactive are those of the source. The call rests on the fitted dose curve; in most records, active means well fitted inhibition curve with a large enough effect; inconclusive means small, poorly fitted or top-dose-only effect; inactive means flat fitted curve, though single readings scatter.
Outcome codes: active, inactive

# molecule, assignedLabel
rows = [
    ("CCN(CC)CCCN(c1ccccc1)C1Cc2ccccc2C1", "active"),
    ("COc1ccc([C@@H]2Sc3ccccc3N(CCN(C)C)C(=O)[C@@H]2OC(C)=O)cc1", "inactive"),
    ("CCCCOCCOCCOCc1cc2c(cc1CCC)OCO2", "inactive"),
    ("COc1ccc(CN(CCN(C)C)c2ccccn2)cc1", "inactive"),
    ("NC(Cc1ccc(Cl)cc1)C(=O)O (stereo not drawn)", "inactive"),
    ("CCCN(CCC)CCc1cccc2c1CC(=O)N2", "inactive"),
    ("C#CCN(C)CCCOc1ccc(Cl)cc1Cl", "inactive"),
    ("CCN1CCC[C@H]1CNC(=O)c1c(O)c(Cl)cc(Cl)c1OC", "inactive"),
    ("NC(N)=NC(=O)Cc1c(Cl)cccc1Cl", "active"),
    ("c1cnc(N2CCN(Cc3ccc4c(c3)OCO4)CC2)nc1", "inactive"),
    ("CN(C)C(=O)Oc1ccc[n+](C)c1", "inactive"),
    ("CCO/C([O-])=N/c1c[n+](N2CCOCC2)no1", "inactive"),
    ("NC(=O)c1cn(Cc2c(F)cccc2F)nn1", "inactive"),
]

====

- assaySummary: Drug repurposing screens with cells derived from glioblastoma tumor samples (AID 1345199); further: on the % scale 0 is the no-effect control and ±100 the full control effect; nearly all actives have a fitted effect of over 40% in size
- conditionSet: GBM patient neurospheres viability, ATP luminescence, 48 h; at 45.9 µM (top of the series); tumour line B
Records with an inconclusive call do not appear.
Rule: measured activity, negative = cell killing below -20% gets 1; anything equal to or greater than -20% gets -1.

# compound, assignedLabel
data = [
    ("CN(C)C/C=C(/c1ccc(Br)cc1)c1cccnc1", 1),
    ("CN(C)C(=O)Oc1ccc[n+](C)c1", -1),
    ("Cc1ccc(/C(=C\\CN2CCCC2)c2ccccn2)cc1", 1),
    ("CCCCNc1c(C(=O)OCC)c(C)nc2c1cnn2CC", 1),
    ("CCOC(=O)C1=C(C)NC(C)=C(C(=O)OC)C1c1cccc([N+](=O)[O-])c1 (stereo unspecified)", -1),
    ("OC(CCN1CCCCC1)(c1ccccc1)C1CCCCC1 (stereo unspecified)", -1),
]

====

- assaySummary: qHTS of pediatric cancer cell lines to identify multiple opportunities for drug repurposing: Primary screen for OHS-50 cells (AID 1347103); further: nearly all actives have a fitted effect of over 40% in size
- conditionSet: OHS-50 osteosarcoma viability, CellTiter-Glo luminescence, 48 h; series mostly up to 57.3 µM
Records with an inconclusive call do not appear. Active and inactive are the calls of the source. Calls follow the shape of the dose curve; as a rule, active = well fitted cell-killing curve with a large enough effect; inconclusive = small, poorly fitted or top-dose-only effect; inactive = no such curve, though single readings can be large or run the other way.
Outcome codes: True (active), False (inactive)

# compound, assignedLabel
rows = [
    ("c1cnc(N2CCN(Cc3ccc4c(c3)OCO4)CC2)nc1", "False"),
    ("CN(C)CCOC(=O)COc1ccc(Cl)cc1", "False"),
    ("CNC1(C)C2CCC(C2)C1(C)C (stereo unspecified)", "False"),
    ("CC(C)(C)NCC(O)c1cc(O)cc(O)c1 (stereo unspecified)", "False"),
    ("C[C@@H](O)[C@H]1C(=O)N2C(C(=O)O)=C(SCCN=CN)C[C@H]12", "False"),
    ("Nc1c2c(nc3ccccc13)CCCC2O (stereo unspecified)", "False"),
    ("CCN(Cc1ccncc1)C(=O)C(CO)c1ccccc1 (stereo unspecified)", "False"),
    ("CC(C)COCC(CN(Cc1ccccc1)c1ccccc1)N1CCCC1 (stereo unspecified)", "True"),
    ("CCN(CC)CC(=O)Nc1c(C)cccc1C", "False"),
    ("C[N+](C)(C)CCCCCCCCCC[N+](C)(C)C", "False"),
    ("COC(=O)C1=C(C)NC(C)=C(C(=O)OCCN(C)Cc2ccccc2)C1c1cccc([N+](=O)[O-])c1 (stereo unspecified)", "True"),
]

====

- Tested on: AS120
- assaySummary: qHTS profiling for inhibitors of Plasmodium falciparum proliferation (AID 504749); further: nearly all actives have a fitted effect of over 60% in size
- conditionSet: P. falciparum in erythrocytes, SYBR Green DNA, 72 h; series mostly up to 28.7 µM
- Experimental: NIH National Institute of Allergy and Infectious Diseases [NIAID] NIH Chemical Genomics Center [NCGC] […] Because mature erythrocytes lack DNA, only Plasmodium-derived DNA is detected. NCGC Assay Protocol Summary: The SYBR Green viability assay was adapted from a method described previously (Plouffe et al., 2008). […] The following morning, fluorescence intensity at 485(14) nm excitation and 535(25) nm emission wavelengths was measured on an EnVision (Perkin Elmer) plate reader. […]
Inconclusive results are not listed. Calls of active or inactive are those of the source. The call rests on the fitted dose curve; in most records, active means well fitted inhibition curve with a large enough effect; inconclusive means small, poorly fitted or top-dose-only effect; inactive means flat fitted curve, though single readings scatter.
Outcome codes: class 1 for active, class 0 for inactive

# compound, targetSystem, assignedLabel
data = [
    ("CCCCNC(=O)NS(=O)(=O)c1ccc(C)cc1", "AS120", "class 0"),
    ("Cc1ccc(=O)n(-c2ccccc2)c1", "AS120", "class 0"),
    ("CCOC(=O)C1=C(C)NC(C)=C(C(=O)OC)C1c1cccc([N+](=O)[O-])c1 (configuration not stated)", "AS120", "class 1"),
    ("O=C(CCNNC(=O)c1ccncc1)NCc1ccccc1", "AS120", "class 0"),
    ("O=C(O)CN(CCOCCOCCN(CC(=O)O)CC(=O)O)CC(=O)O", "AS120", "class 0"),
    ("Brc1c(NC2=NCCN2)ccc2nccnc12", "AS120", "class 0"),
    ("CC(C)(C)c1ccc(C(=O)CCCN2CCC(OC(c3ccccc3)c3ccccc3)CC2)cc1", "AS120", "class 1"),
    ("CSc1ccc(C(=O)c2[nH]c(=O)[nH]c2C)cc1", "AS120", "class 0"),
    ("O=C(O)CP(=O)(O)O", "AS120", "class 0"),
    ("CCCN(CCC)CCc1cccc2c1CC(=O)N2", "AS120", "class 0"),
    ("C[N+](C)(C)CCOC(N)=O", "AS120", "class 0"),
    ("CCO/C([O-])=N/c1c[n+](N2CCOCC2)no1", "AS120", "class 0"),
]

====

- System: CP217
- assaySummary: qHTS profiling for inhibitors of Plasmodium falciparum proliferation (AID 504749); further: nearly all actives have a fitted effect of over 60% in size
- conditionSet: P. falciparum in erythrocytes, SYBR Green DNA, 72 h; series mostly up to 28.7 µM
Inconclusive results are not listed. Active and inactive are the calls of the source. The call rests on the fitted dose curve; in most records, active means well fitted inhibition curve with a large enough effect; inconclusive means small, poorly fitted or top-dose-only effect; inactive means flat fitted curve, though single readings scatter.
Outcome codes: YES for active, NO for inactive

# compound, assignedLabel
measured = [
    ("CCN(CC)CC(=O)Nc1c(C)cccc1C", "NO"),
    ("NC(=O)c1ncn([C@@H]2O[C@H](CO)[C@@H](O)[C@H]2O)c1O", "NO"),
    ("O=C(O)CN(CCN(CC(=O)O)CC(=O)O)CCN(CC(=O)O)CC(=O)O", "NO"),
    ("NC(=O)c1cn(Cc2c(F)cccc2F)nn1", "NO"),
    ("CCO/C([O-])=N/c1c[n+](N2CCOCC2)no1", "NO"),
    ("Cc1nc2c([nH]1)c(=O)n(C)c(=O)n2Cc1ccco1", "NO"),
    ("Cc1scc2c1N(C(=O)CN1CCN(C)CC1)c1ccccc1NC2=O", "NO"),
    ("CCn1ccnc1CC1COc2ccccc2O1 (configuration not stated)", "NO"),
    ("CN(C(=O)CCCOc1ccc2[nH]c(=O)ccc2c1)C1CCCCC1", "NO"),
    ("CNC1(C)C2CCC(C2)C1(C)C (configuration not stated)", "NO"),
    ("Nc1ncn([C@@H]2O[C@H](CO)[C@@H](O)[C@H]2O)c(=O)n1", "NO"),
    ("CN(C)C(=O)Oc1ccc[n+](C)c1", "NO"),
    ("CCN1CCC[C@H]1CNC(=O)c1c(O)c(Cl)cc(Cl)c1OC", "NO"),
    ("O=C(O)CN(CCOCCOCCN(CC(=O)O)CC(=O)O)CC(=O)O", "NO"),
    ("NC(=Nc1ccccc1)Nc1ccccc1", "NO"),
    ("FC(F)(F)c1ccccc1-n1ccnc1", "NO"),
    ("Nc1nc(N)c2nc(-c3ccccc3)c(N)nc2n1", "NO"),
    ("CCN(CC)CCCN(c1ccccc1)C1Cc2ccccc2C1", "YES"),
    ("CC[N+](C)(C)c1cccc(O)c1", "NO"),
    ("NC(=O)N1c2ccccc2C=Cc2ccccc21", "NO"),
    ("COC(=O)[C@H]1[C@H]2C[C@@H]3c4[nH]c5cc(OC)ccc5c4CCN3C[C@H]2C[C@@H](OC(=O)c2cc(OC)c(OC)c(OC)c2)[C@@H]1OC", "YES"),
    ("CCCN(CCC)CCc1cccc2c1CC(=O)N2", "NO"),
]
